Listing of recorded 100 nM Ag Bound (RU) by entry.
- study_system: T1, mfNPR1-mFc:hBNP complex (monkey; human, UniProt P16860 103-134)
- T1 construct: also called monkey NPR1 complexed to BNP
- assay_explanation: SPR, mAb captured, 25C

# binder, 100 nM Ag Bound (RU)
data = [
    ("mAb22035 (antibody, human IgG4, V domains shown) VH: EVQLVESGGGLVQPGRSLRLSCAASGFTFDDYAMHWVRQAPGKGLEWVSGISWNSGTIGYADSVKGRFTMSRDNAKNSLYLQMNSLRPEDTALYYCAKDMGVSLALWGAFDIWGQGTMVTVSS VL: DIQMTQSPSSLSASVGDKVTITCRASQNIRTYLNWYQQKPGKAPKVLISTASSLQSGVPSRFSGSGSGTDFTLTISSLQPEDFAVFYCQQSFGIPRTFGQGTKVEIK", 231),
    ("mAb22033 (antibody, human IgG4, V domains shown) VH: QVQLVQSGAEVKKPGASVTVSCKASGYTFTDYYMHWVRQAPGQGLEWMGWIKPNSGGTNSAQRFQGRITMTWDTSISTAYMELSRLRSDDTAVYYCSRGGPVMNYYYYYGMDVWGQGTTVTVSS VL: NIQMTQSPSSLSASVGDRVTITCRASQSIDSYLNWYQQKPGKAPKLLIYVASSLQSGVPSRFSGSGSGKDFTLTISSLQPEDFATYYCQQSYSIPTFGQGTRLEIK", 132),
    ("mAb25491 (antibody, human IgG4, V domains shown) VH: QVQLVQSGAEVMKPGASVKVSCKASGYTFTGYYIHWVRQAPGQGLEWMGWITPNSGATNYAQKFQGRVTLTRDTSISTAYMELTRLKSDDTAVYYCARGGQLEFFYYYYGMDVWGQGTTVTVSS VL: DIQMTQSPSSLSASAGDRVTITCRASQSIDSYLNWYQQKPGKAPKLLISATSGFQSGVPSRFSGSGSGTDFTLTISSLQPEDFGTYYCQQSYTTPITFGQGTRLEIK", 110),
]
